The reported numbers originate from patent US7888363B2.

Below: a set of entries, each annotated with reported pIC50.
target-or-test-system: hepatitis C virus RNA dependant polymerase (NS5B) (Hepatitis C virus genotype 1b)
Sequence (P26663 2420-3010): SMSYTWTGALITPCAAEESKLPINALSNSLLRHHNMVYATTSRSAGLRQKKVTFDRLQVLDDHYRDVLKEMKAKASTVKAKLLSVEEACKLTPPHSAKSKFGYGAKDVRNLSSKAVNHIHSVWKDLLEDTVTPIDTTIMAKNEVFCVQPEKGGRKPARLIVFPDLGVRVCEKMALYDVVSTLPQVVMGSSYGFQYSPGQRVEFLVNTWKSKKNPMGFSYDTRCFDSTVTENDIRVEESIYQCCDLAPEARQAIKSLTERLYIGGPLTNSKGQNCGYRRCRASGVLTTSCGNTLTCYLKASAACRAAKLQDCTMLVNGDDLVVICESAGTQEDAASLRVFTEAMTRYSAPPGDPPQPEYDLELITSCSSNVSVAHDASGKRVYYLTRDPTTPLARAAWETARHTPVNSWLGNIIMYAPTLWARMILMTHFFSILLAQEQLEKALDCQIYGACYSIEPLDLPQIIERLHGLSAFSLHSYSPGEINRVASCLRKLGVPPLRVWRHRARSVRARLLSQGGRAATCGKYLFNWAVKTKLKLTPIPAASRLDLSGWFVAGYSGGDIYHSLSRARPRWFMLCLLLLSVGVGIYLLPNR
assay-name: Inhibition of NS5B RNA dependent RNA polymerase activity
Assay type: biochemical
reported-conditions: Table 4; class ranges
pIC50: −log10 of the molar value.
observable: pIC50

[[record]]
compound = "C[C@@H](NC(=O)c1ccc2c(C3CCCCC3)c(-c3ccoc3)n(CC(=O)N3CCN(C)CC3)c2c1)c1ccccc1 [Example 4039]"
observable = "pIC50"
measured = "6.00 to 6.70"

[[record]]
compound = "CN(C)C(=O)Cn1c(-c2ccoc2)c(C2CCCCC2)c2ccc(C(=O)NCCc3ccncc3)cc21 [Example 4057]"
observable = "pIC50"
measured = "6.00 to 6.70"

[[record]]
compound = "CN1CCN(C(=O)Cn2c(-c3ccoc3)c(C3CCCCC3)c3ccc(C(=O)NCc4ccc(S(C)(=O)=O)cc4)cc32)CC1 [Example 4041]"
observable = "pIC50"
measured = "> 6.70"

[[record]]
compound = "C[C@@H](NC(=O)c1ccc2c(C3CCCCC3)c(-c3ccoc3)n(CC(=O)N3CCC(N4CCCC4)CC3)c2c1)c1ccccc1 [Example 4005]"
observable = "pIC50"
measured = "> 6.70"

[[record]]
compound = "O=C(NCc1ccccn1)c1ccc2c(C3CCCCC3)c(-c3ccoc3)n(CC(=O)N3CCOCC3)c2c1 [Example 4046]"
observable = "pIC50"
measured = "6.00 to 6.70"

[[record]]
compound = "CN(C)C(=O)Cn1c(-c2ccoc2)c(C2CCCCC2)c2ccc(C(=O)NCc3ccccn3)cc21 [Example 4053]"
observable = "pIC50"
measured = "6.00 to 6.70"

[[record]]
compound = "O=C(NC1(C(=O)O)CCCCC1)c1ccc2c(C3CCCCC3)c(-c3ccoc3)n(CC(=O)N3CCOCC3)c2c1 [Example 4078]"
observable = "pIC50"
measured = "6.00 to 6.70"

[[record]]
compound = "COc1ccc([C@@H](C)NC(=O)c2ccc3c(C4CCCCC4)c(-c4ccoc4)n(CC(=O)N(C)C)c3c2)cc1 [Example 4059]"
observable = "pIC50"
measured = "> 6.70"

[[record]]
compound = "CNC(=O)C1(NC(=O)c2ccc3c(C4CCCCC4)c(-c4ccoc4)n(CC(=O)N4CCC(N5CCCC5)CC4)c3c2)CCC1 [Example 4089]"
observable = "pIC50"
measured = "> 6.70"

[[record]]
compound = "CN1CCN(C(=O)Cn2c(-c3ccoc3)c(C3CCCCC3)c3ccc(C(=O)NC(C)(C)Cc4ccccc4)cc32)CC1 [Example 4037]"
observable = "pIC50"
measured = "5.00 to 6.00"

[[record]]
compound = "CC(C)Nc1nc(C2(NC(=O)c3ccc4c(C5CCCCC5)c(-c5ccoc5)n(CC(=O)N5CCC(N6CCCC6)CC5)c4c3)CCC2)cs1 [Example 4105]"
observable = "pIC50"
measured = "6.00 to 6.70"

[[record]]
compound = "O=C(NCc1ccc(O)c(O)c1)c1ccc2c(C3CCCCC3)c(-c3ccoc3)n(CC(=O)N3CCOCC3)c2c1 [Example 4062]"
observable = "pIC50"
measured = "> 6.70"

[[record]]
compound = "CC(=O)Nc1nc(C2(NC(=O)c3ccc4c(C5CCCCC5)c(-c5ccoc5)n(CC(=O)N5CCC(N6CCCC6)CC5)c4c3)CCC2)cs1 [Example 4102]"
observable = "pIC50"
measured = "> 6.70"

[[record]]
compound = "CS(=O)(=O)NC(=O)c1ccc2c(C3CCCCC3)c(-c3ccoc3)n(CC(=O)N3CCC(N4CCCC4)CC3)c2c1 [Example 4109]"
observable = "pIC50"
measured = "> 6.70"

